# System: 786-0
# assay_notes: NCI tumour cell line growth inhibition, 48 h
Activity calls are given as the source filed them. Cut-off read from the data, not from the text of the source: active = GI50 up to about 1.1 µM and inactive = higher.
property_label: GI50

The compound `Cc1ccc(N2C(=O)CS/C2=C(\C#N)c2nc3ccccc3[nH]2)cc1` on 786-0: GI50 was > 100 µM (inactive)

Here `O=C(Nc1ccc(Br)cc1)c1c(-c2ccccc2)c2ccc(O)cc2oc1=O` was tested on 786-0, and its GI50 came to > 10 µM (inactive)

// returns GI50 for Cc1cc(C)c(P2C(=C(O[Si](C(C)C)(C(C)C)C(C)C)C(C)(C)C)C2(c2ccccc2)c2ccccc2)c(C)c1 (centres undefined) with 786-0; value = > 100 µM (inactive)

Value (GI50, 786-0) for record `COc1ccc(/C(Cl)=C/c2ccc(Cl)c(Cl)c2)cc1` = 32.5 µM (inactive)

###

Kindly supply the reported GI50 values for the records listed here.
# Tested on: DU-145
# assay_notes: NCI tumour cell line growth inhibition, 48 h
Active and inactive are the calls of the source. No stated cut-off is given here; in the data, active = GI50 up to about 1.1 µM and inactive = higher.

Measured on DU-145, `CCOC(=O)/C=C(/N=P(c1ccccc1)(c1ccccc1)c1ccccc1)C(F)(F)F` has a documented GI50 of > 10 µM (inactive)

Field GI50 (system: DU-145) for entry `CC1(C)COC(c2cccc(C3=NC(C)(C)CO3)c2)=N1` = > 100 µM (inactive)

Recorded GI50 for `Cc1nc2c(=O)[nH]c(=O)nc-2n(CCO)c1C` on DU-145 was > 100 µM (inactive)

GET /values?item= `Oc1c(Br)cc(/C=C/c2cccc(/C=C/c3cc(Br)c(O)c(Br)c3)n2)cc1Br` &system= DU-145 returns GI50: < 0.01 µM (active)

Field GI50 (DU-145), entry COC(=O)C(Cc1c[nH]c2ccccc12)NC1=Nc2ccncc2S(=O)(=O)N1c1cccc(OC(C)C)c1 (stereo not given) : 32.8 µM (inactive)

Case `N=C1/C(=C/c2ccco2)C(=O)N=C2SC=NN12` , DU-145, GI50 recorded as > 100 µM (inactive)

Lab entry: DU-145 assay, compound `Clc1ccc(CCNC2(c3cc4ccccc4s3)CCCCC2)cc1Cl` , GI50 = 32.9 µM (inactive)

Form: item `COc1ccccc1N/C(SCc1ccccc1)=C(/C(Cl)=C(Cl)Cl)[N+](=O)[O-]` ; test system DU-145; GI50: 26.7 µM (inactive)

The value of GI50 recorded for `COc1ccc2c(c1)[C@@]13CCN4CC5=CCO[C@H]6CC(=O)N2[C@H]1[C@H]6[C@H]5C[C@H]43` when tested on DU-145 reads > 100 µM (inactive)

Query `CSC1=C(SC)C(=O)c2cn(C)c(=O)cc2C1=O` on DU-145; GI50 returned: 8.47 µM (inactive)

###

Would you mind telling me the reported GI50 of each entry?
# Tested on: DMS-273
# assay_notes: NCI tumour cell line growth inhibition, 48 h
The source made the active and inactive calls. Rule as the data show it: active = GI50 up to about 1.1 µM and inactive = higher.

Form field GI50, entry `Cc1nc2ccc(N)cc2nc1O` : > 100 µM (inactive)

Per the record, `COc1ccc(/C(Cl)=C(\C=O)c2cc(OC)c(OC)c(OC)c2)cc1OC` has GI50 of 35.8 µM (inactive)

Entry `O=S(=O)(O)CS(=O)(=O)OCCCl` , GI50 reported as > 100 µM (inactive)

So for `COc1cc2c(oc(=O)c3cc4cc([Si](C)(C)C)oc4c(OC)c32)c2cccc(O)c12` , the logged GI50 turned out to be > 100 µM (inactive)

Measured GI50 of `N#CN=C(NCc1ccccc1)NCc1ccccc1` : > 41.9 µM (inactive)

What the record says about CCN(CC)CCCC(C)Nc1ccnc2cc(Cl)ccc12 (stereo unspecified) [CHLOROQUINE PHOSPHATE] : GI50 is 28.1 µM (inactive)

###

# Test system: HOP-62
# assay_notes: NCI tumour cell line growth inhibition, 48 h
The source made the active and inactive calls. Rule as the data show it: active = GI50 up to about 1.1 µM and inactive = higher.
Please go through the items and note down their GI50.

`Cc1nc2c(=O)[nH]c(=O)nc-2n(CCO)c1C` has a reported GI50 of > 100 µM (inactive)

Lookup result for `O=C(NCC(O)CNC(=O)C(F)(F)F)C(F)(F)F` ; measured GI50: > 100 µM (inactive)

The recorded GI50 for COC(=O)C(C#CCCCCC#CC(NC(=O)OCc1ccccc1)(C(=O)OC)C(F)(F)F)(NC(=O)OCc1ccccc1)C(F)(F)F (stereo not given) is > 100 µM (inactive)

For record `O=c1c2cc([N+](=O)[O-])ccc2n2n1Cc1ccccc1C2` the listed GI50 is > 100 µM (inactive)

The value of GI50 measured for the compound `Oc1c(Br)cc(/C=C/c2cccc(/C=C/c3cc(Br)c(O)c(Br)c3)n2)cc1Br` turned out to be 31.6 µM (inactive)

###

# Tested on: EKVX
# assay_notes: NCI tumour cell line growth inhibition, 48 h
Active and inactive are the calls of the source. No stated cut-off is given here; in the data, active = GI50 up to about 1.1 µM and inactive = higher.
Result category, one only: active, inactive

INPUT: // return assay outcome for COC(=O)C(Cc1c[nH]c2ccccc12)NC1=Nc2ccncc2S(=O)(=O)N1c1cccc(OC(C)C)c1 (stereo unspecified)
OUTPUT: inactive

INPUT: How did this test come out for `C/C(=N\NC(=[Se])N(C)C)c1ccccn1` ?
OUTPUT: active

INPUT: Fill in: this test's call for `COc1ccc(/C=C2\C[C@H]3[C@@H]4CC=C5C[C@@H](OC(C)=O)CC[C@]5(C)[C@H]4CC[C@]3(C)\C2=N\O)cc1OC` is ___
OUTPUT: inactive

INPUT: Identify the outcome logged in this assay for the compound shown: C=C(CC(NC(=O)c1ccc(C(CC)Cc2cnc3nc(N)nc(N)c3n2)cc1)C(=O)O)C(=O)O (stereo unspecified)
OUTPUT: inactive

INPUT: How did this test come out for `CC(C)(/N=N/C(C)(C)C1=NCCN1)C1=NCCN1` ?
OUTPUT: inactive

INPUT: Each compound tested received a call. Report the one for `COc1cc(C=O)cc(O)c1O` .
OUTPUT: inactive

INPUT: Could you kindly confirm the outcome this assay logged for CCCCCCC(CCl)c1sc(-c2csc(CCNC(=O)OC(C)(C)C)n2)nc1C(=O)OC (stereo unspecified) ?
OUTPUT: inactive

INPUT: Fill in: this test's call for `CCOC(=O)Nc1nc(-c2ccccc2)c(C)s1` is ___
OUTPUT: inactive

INPUT: Field: outcome | Entry: `CNc1cc([N+](=O)[O-])ccc1C(=O)N1CCC[C@H]1CO`
OUTPUT: inactive

INPUT: Any idea what this test logged for [O-][S+]1c2ccccc2N=C(c2cccs2)CC1c1ccccc1O (stereo unspecified) ?
OUTPUT: inactive

INPUT: Could you kindly confirm the outcome this assay logged for `O=C(NCC(O)CNC(=O)C(F)(F)F)C(F)(F)F` ?
OUTPUT: inactive

INPUT: Record request — test call for `NC1(C(=O)OCc2ccccc2)CCCC1`
OUTPUT: inactive

INPUT: What classification did `COC(=O)C1=C([C@H]2COC(C)(C)O2)[C@H]2C[C@@H]1[C@@H]1OC(C)(C)O[C@@H]12` end up with in this test?
OUTPUT: inactive

INPUT: How was Clc1ccc(C2SCc3nc4ccccc4n32)cc1 (stereo unspecified) classified in this test?
OUTPUT: inactive

INPUT: Assay result, entry Oc1cc(O)c2c(c1)OC(c1ccc(O)c(O)c1)C(OC1(c3cc(O)c(O)c(O)c3)Oc3cc(O)cc(O)c3C(O)C1O)C2 (stereo unspecified) — outcome?
OUTPUT: inactive

INPUT: Recorded test call requested for O=C(CCN1CCCCC1CO)Nc1ccc2c(c1)C(=O)c1ccc(NC(=O)CCN3CCCCC3CO)cc1C2=O (stereo unspecified)
OUTPUT: inactive

###

# Test system: MOLT-4
# assay_notes: NCI tumour cell line growth inhibition, 48 h
Activity calls are given as the source filed them. Rule as the data show it: active = GI50 up to about 1.1 µM and inactive = higher.
Parameter call: string, one of active, inactive

INPUT: Please let me know the test result on file for `CNc1cc([N+](=O)[O-])ccc1C(=O)N1CCC[C@H]1CO` .
OUTPUT: inactive

INPUT: So what was the verdict on `Cc1ccc(-n2cc(-c3ccc(Cl)cc3)c3c(NNC(=S)NCc4ccccc4)ncnc32)cc1` in this test?
OUTPUT: inactive

INPUT: In this assay, the call recorded for C=C(CC(NC(=O)c1ccc(C(CC)Cc2cnc3nc(N)nc(N)c3n2)cc1)C(=O)O)C(=O)O (stereo not drawn) was what?
OUTPUT: active

INPUT: State the result this test recorded for `O=c1c2cc([N+](=O)[O-])ccc2n2n1Cc1ccccc1C2` .
OUTPUT: inactive

INPUT: Dear colleague, could you share the recorded outcome for CC(=O)O[C@@H]1CC2[C@@H](CCC3Cc4nc5c(nc4C[C@@]32C)CC2CC[C@@H]3C(CC[C@@]4(C)C3CC[C@@H]4C(C)CCCC(C)C)[C@@]2(C)C5)C2C[C@@H]3OC4(CCC(C)CO4)C(C)[C@@H]3[C@]21C (stereo partly drawn) when you have a moment?
OUTPUT: inactive

INPUT: Hi, do you know how `O=c1c(SSc2coc3cc(F)ccc3c2=O)coc2cc(F)ccc12` came out in this test?
OUTPUT: inactive

INPUT: What did the test return for `C/C(=N\Nc1nc2ccccc2s1)c1cc(C)ncn1` ?
OUTPUT: active

INPUT: Query: recorded result category for `O=C(O)c1ccc(CI)cc1` in this test
OUTPUT: inactive
